Target: α1a-AR (Homo sapiens, UniProt P35348)
Construct: expressed in transfected cells; host or cells: COS-7 cells (African Green monkey kidney), membranes
Sequence (P35348 1-466): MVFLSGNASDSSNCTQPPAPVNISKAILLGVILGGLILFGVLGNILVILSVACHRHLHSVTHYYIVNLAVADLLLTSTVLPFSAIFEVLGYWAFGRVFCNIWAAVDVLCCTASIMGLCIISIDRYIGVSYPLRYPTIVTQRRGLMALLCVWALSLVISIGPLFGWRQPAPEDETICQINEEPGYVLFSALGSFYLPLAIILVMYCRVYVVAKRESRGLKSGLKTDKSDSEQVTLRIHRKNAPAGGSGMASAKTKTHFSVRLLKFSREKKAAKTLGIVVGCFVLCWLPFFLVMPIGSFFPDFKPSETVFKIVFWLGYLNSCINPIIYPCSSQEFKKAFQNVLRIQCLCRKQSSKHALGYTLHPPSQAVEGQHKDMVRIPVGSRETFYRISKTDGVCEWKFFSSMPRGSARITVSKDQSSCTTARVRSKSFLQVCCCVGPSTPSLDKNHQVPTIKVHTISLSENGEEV
Experiment: α1-Adrenergic Receptor Binding Assay, 125I-HEAT radio-ligand binding, transfected COS-7 cell membranes, α1a subtype
Settings: individual values, COS-7 membranes, read-out: Alpha 1 Ki α1a (2) Individual Values
outcome_measure: Ki (nM)

Use these answered entries as a reference point.
CC(C)Oc1ccccc1N1CCN(CC2CC(C(=O)N3CCC(Oc4ccccn4)CC3)=NO2)CC1 (stereo not shown) = 41.7
CC(=O)N1CCc2ccc(NC(=O)C3=NOC(CN4CCN(c5ccccc5OC(C)C)CC4)C3)cc21 (stereo not shown) = 5.46
CC(C)Oc1ccccc1N1CCN(CC2CC(CN3CCc4ccc(NCc5c(F)cccc5F)cc43)=NO2)CC1 (stereo not shown) = 6.4

a = COc1cc2c(cc1OC)N(C(=O)C1=NOC(CN3CCN(c4ccccc4OC(C)C)CC3)C1)CC2 (stereo not shown)
b = COc1cccc(CNc2ccc3c(c2)N(CC2=NOC(CN4CCN(c5ccccc5OC(C)C)CC4)C2)CC3)c1 (stereo not shown)
c = CC(C)Oc1ccccc1N1CCN(CC2CC(C(=O)N3CCC(C(=O)c4ccc(F)cc4)CC3)=NO2)CC1 (single isomer, unassigned) [Compound 41]
d = CC(C)Oc1ccccc1N1CCN(CC2CC(C(=O)N3CCOCC3)=NO2)CC1 (single isomer, unassigned) [Compound 45]
Q: Rank items: key Ki, increasing. // respond by listing labels in the order requested
Result: a, b, d, c
(a: 5.65 nM, b: 34 nM, d: 73.1 nM, c: 240 nM)

FYI, the data here is from patent US20080221116A1.
